system: NUAK2 (Homo sapiens)
Sequence (Q9H093 1-628): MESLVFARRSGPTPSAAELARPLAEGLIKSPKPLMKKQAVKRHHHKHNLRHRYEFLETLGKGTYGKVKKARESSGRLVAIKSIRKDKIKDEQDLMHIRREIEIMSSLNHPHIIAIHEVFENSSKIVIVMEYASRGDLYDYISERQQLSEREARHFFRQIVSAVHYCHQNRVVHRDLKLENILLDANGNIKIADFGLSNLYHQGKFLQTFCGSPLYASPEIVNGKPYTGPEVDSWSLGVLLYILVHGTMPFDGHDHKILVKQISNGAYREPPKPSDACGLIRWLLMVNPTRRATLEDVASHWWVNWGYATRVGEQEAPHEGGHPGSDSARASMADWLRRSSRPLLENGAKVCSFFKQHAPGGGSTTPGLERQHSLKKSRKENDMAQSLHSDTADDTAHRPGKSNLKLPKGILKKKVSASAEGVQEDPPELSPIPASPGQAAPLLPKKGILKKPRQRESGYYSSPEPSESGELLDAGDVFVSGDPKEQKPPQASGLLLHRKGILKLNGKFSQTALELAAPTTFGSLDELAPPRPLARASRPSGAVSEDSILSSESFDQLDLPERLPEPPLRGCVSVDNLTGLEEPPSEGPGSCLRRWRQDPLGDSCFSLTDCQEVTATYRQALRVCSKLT
assay_text: Enzyme activity inhibition test, kinase activity assay based on P81 filter paper binding hot-spot technique
Type: biochemical
stated_conditions: final concentration of NUAK2 50 nM; 20 µM CHKtide peptide substrate; 33P-labeled ATP; 2 hours at room temperature; read-out: IC50 (nM) of Test Compounds against NUAK2
Quick list: IC50 per entry.
Number only, in nM; omit the unit.

Returns the measured IC50 for the input compound. Input: CC1(NC(=O)[C@@H]2CC2(F)F)CCN(c2nc(Nc3cnn(C4CCNCC4)c3)ncc2Cl)CC1
2.76

Returns the measured IC50 for the input compound. Input: CN1CCN(c2ccc(Nc3ncc(Cl)c(N4CCC(C)(NS(=O)(=O)C5CC5)CC4)n3)cc2)CC1
3

Returns the measured IC50 for the input compound. Input: CN1CCN(c2ccc(Nc3nccc(N4CCC(C)(NC(=O)[C@@H]5CC5(F)F)CC4)n3)cc2)CC1
15

Returns the measured IC50 for the input compound. Input: CC1(NS(=O)(=O)C2CC2)CCN(c2ccnc(Nc3cnn(C4CCNCC4)c3)n2)CC1
29

###

system: NUAK1 (Homo sapiens)
Sequence (O60285 1-661): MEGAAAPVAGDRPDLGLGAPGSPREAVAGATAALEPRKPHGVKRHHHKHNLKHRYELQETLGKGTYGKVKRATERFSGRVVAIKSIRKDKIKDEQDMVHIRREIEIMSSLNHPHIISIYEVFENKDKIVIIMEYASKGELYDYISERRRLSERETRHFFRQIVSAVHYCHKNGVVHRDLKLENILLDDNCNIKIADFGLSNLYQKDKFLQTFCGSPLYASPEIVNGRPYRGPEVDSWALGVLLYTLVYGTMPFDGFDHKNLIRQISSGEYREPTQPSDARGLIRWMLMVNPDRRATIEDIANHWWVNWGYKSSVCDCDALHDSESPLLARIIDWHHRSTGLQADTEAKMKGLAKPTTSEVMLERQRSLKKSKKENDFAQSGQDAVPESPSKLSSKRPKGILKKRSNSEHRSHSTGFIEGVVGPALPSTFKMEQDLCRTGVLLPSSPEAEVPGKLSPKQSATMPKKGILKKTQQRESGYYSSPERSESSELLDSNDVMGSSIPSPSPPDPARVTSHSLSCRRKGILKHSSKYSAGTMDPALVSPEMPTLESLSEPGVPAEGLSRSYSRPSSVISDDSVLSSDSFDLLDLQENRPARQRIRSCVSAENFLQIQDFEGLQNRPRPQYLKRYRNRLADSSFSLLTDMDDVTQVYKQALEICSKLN
assay_text: Enzyme activity inhibition test, kinase activity assay based on P81 filter paper binding hot-spot technique
Assay type: biochemical
stated_conditions: final concentration of NUAK1 10 nM; 20 µM CHKtide peptide substrate; 33P-labeled ATP; 2 hours at room temperature; read-out: IC50 (nM) of Test Compounds against NUAK1
Quick list: IC50 per entry.
Number only, in nM; omit the unit.

structure	quantitative_result
CC1(NC(=O)[C@@H]2CC2(F)F)CCN(c2ccnc(Nc3cnn(C4CCNCC4)c3)n2)CC1	30

Returns the measured IC50 for the input compound. Input: CC1(NC(=O)[C@@H]2CC2(F)F)CCN(c2nc(Nc3cnn(C4CCNCC4)c3)ncc2Cl)CC1
1.24

Returns the measured IC50 for the input compound. Input: CN1CCN(c2ccc(Nc3ncc(Cl)c(CN4CCC(C)(NC(=O)[C@@H]5CC5(F)F)CC4)n3)cc2)CC1
679

Returns the measured IC50 for the input compound. Input: CC1(NS(=O)(=O)C2CC2)CCN(c2ccnc(Nc3cnn(C4CCNCC4)c3)n2)CC1
71
